Tested on: U2OS cells
Assay: Cell growth inhibition against human osteosarcoma cells U2OS
Format: cell-based
Conditions: 72 hours, read-out: Cell Growth Inhibitory Activity, IC50, U2OS
# reported IC50; entries follow
State the result as a value with its unit after it.

compound	IC50
CC(Cn1c2ccccc2c2c3c(c(C=NO)cc21)C(=O)NC3=O)N(C)C (centres unmarked)	1.2 µM
CC(Cn1c2ccccc2c2c3c(c(C=NN)cc21)C(=O)NC3=O)N(C)C (centres unmarked)	0.68 µM
CN(C)CCCn1c2ccccc2c2c3c(c(C=O)cc21)C(=O)NC3=O	1.6 µM
CC(Cn1c2ccccc2c2c3c(c(C=O)cc21)C(=O)NC3=O)N(C)C (centres unmarked)	2.1 µM

Consider now this further compound.
Name the reported IC50 value associated with the compound "CN(C)CCCn1c2ccccc2c2c3c(c(C=NO)cc21)C(=O)NC3=O" 0.5 µM

---

Quick note: these are pIC50 numbers for system: human CDK2-cyclin E (Homo sapiens)
Just the number, please; pIC50 means minus log10 of the concentration in mol/L.

These recorded examples may help you get a feel for the data.
compound	pIC50
C=CCn1c2ccccc2c2c3c(c(CO)cc21)C(=O)NC3=O [Compound 46]	5.48
CC(Cn1c2ccccc2c2c3c(c(C=O)cc21)C(=O)NC3=O)N(C)C (stereo not shown) [Compound 66]	6.60
Cn1c2ccccc2c2c3c(c(CBr)cc21)C(=O)NC3=O [Compound 36]	5.64
CC(Cn1c2ccccc2c2c3c(c(C=NO)cc21)C(=O)NC3=O)N(C)C (stereo not shown) [Compound 68]	6.70

Request body: readout pIC50, system human CDK2-cyclin E (Homo sapiens), query CC(Cn1c2ccccc2c2c3c(c(C=NN)cc21)C(=O)NC3=O)N(C)C (stereo not shown) [Compound 69] . Return the value. 6.02

Request body: readout pIC50, system human CDK2-cyclin E (Homo sapiens), query C=CCn1c2ccccc2c2c3c(c(C=NNCCO)cc21)C(=O)NC3=O [Compound 54] . Return the value. 5.70

Request body: readout pIC50, system human CDK2-cyclin E (Homo sapiens), query CCCCC(=O)Oc1cccc(-c2cc3c(cc(C=O)n3C)c3c2C(=O)NC3=O)c1 [Compound 12] . Return the value. 5.30
